Origin of the recorded values: ChEMBL document CHEMBL1141106

- subject.of.test: Glutamate NMDA receptor
- experiment.notes: In vitro binding affinity for NMDA receptor using [3H]-CGP- 39653
readout: log10 Ki (log10 of the value in nM)
Lab note - Ki converted to log10 from values in nM.

Measured log10 Ki of N[C@@]1(C(=O)O)C[C@@H]2ON=C(C(=O)O)[C@@H]2C1 : 4.67

// sample N[C@@]1(C(=O)O)C[C@@H]2C(C(=O)O)=NO[C@@H]2C1 , its log10 Ki was 2.37

What the record says about N[C@@H](C[C@@H]1CC(C(=O)O)=NO1)C(=O)O : log10 Ki is 3.28

Data point: N[C@H](C[C@H]1CC(C(=O)O)=NO1)C(=O)O ; log10 Ki = 2.00

The compound identified as NC1(C(=O)O)CC2ON=C(C(=O)O)C2C1 (racemic; form 1) registered its log10 Ki at 2.57

Summary for this compound, N[C@H](C[C@@H]1CC(C(=O)O)=NO1)C(=O)O : log10 Ki is 2.71

Measured log10 Ki, NC(CC1CC(C(=O)O)=NO1)C(=O)O (racemic; form 1) : 2.32

Form field log10 Ki, entry NC(CC1CC(C(=O)O)=NO1)C(=O)O (racemic; form 2) : 2.98

---

- subject.of.test: Metabotropic glutamate receptor 1 (Rattus norvegicus, UniProt P23385)
- Sequence (P23385 whole entry): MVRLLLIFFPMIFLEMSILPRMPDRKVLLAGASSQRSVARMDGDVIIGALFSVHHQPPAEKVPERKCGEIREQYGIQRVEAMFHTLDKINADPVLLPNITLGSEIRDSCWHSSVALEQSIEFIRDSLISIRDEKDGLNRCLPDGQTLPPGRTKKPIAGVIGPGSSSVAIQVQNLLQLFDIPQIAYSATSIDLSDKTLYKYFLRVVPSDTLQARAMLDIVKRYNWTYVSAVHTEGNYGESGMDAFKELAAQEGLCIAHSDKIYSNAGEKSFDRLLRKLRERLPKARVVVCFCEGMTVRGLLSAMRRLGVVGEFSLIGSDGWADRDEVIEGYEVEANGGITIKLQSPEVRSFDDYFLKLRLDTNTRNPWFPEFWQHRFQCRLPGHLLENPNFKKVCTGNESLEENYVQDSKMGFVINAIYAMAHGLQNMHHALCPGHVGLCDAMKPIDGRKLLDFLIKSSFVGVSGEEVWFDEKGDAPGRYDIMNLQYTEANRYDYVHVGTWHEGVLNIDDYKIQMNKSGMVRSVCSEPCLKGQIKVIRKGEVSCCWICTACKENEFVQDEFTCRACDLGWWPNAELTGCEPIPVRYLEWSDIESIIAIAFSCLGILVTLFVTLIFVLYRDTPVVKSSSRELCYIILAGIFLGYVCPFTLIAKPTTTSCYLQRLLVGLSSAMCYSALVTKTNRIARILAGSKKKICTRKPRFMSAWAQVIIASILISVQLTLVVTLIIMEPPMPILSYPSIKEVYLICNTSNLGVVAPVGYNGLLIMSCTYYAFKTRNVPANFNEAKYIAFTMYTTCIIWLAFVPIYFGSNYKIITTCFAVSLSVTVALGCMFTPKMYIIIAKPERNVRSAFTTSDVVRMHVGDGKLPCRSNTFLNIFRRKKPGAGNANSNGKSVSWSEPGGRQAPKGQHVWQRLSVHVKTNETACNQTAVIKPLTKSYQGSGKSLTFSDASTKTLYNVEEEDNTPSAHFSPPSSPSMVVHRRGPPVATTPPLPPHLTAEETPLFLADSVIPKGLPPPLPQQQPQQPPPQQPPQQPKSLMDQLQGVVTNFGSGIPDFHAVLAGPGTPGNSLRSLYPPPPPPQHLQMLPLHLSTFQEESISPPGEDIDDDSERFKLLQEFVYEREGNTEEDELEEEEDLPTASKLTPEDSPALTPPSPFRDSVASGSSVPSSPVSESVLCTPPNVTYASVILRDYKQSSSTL
- experiment.notes: Effective concentration against mGluR1 receptor expressed in CHO cells
Give EC50 for every item shown.

I looked up N[C@]1(C(=O)O)C[C@@H]2ON=C(C(=O)O)[C@@H]2C1 and its EC50 for Metabotropic glutamate receptor 1 (Rattus norvegicus, UniProt P23385) was > 1000 µM

Noted EC50 for NC(CC1CC(C(=O)O)=NO1)C(=O)O (racemic; form 1) , tested on Metabotropic glutamate receptor 1 (Rattus norvegicus, UniProt P23385): > 1000 µM

Record N[C@@]1(C(=O)O)C[C@@H]2C(C(=O)O)=NO[C@@H]2C1 has Metabotropic glutamate receptor 1 (Rattus norvegicus, UniProt P23385) EC50 equal to > 1000 µM

---

- subject.of.test: UniProt P31423
- Sequence (P31423 whole entry): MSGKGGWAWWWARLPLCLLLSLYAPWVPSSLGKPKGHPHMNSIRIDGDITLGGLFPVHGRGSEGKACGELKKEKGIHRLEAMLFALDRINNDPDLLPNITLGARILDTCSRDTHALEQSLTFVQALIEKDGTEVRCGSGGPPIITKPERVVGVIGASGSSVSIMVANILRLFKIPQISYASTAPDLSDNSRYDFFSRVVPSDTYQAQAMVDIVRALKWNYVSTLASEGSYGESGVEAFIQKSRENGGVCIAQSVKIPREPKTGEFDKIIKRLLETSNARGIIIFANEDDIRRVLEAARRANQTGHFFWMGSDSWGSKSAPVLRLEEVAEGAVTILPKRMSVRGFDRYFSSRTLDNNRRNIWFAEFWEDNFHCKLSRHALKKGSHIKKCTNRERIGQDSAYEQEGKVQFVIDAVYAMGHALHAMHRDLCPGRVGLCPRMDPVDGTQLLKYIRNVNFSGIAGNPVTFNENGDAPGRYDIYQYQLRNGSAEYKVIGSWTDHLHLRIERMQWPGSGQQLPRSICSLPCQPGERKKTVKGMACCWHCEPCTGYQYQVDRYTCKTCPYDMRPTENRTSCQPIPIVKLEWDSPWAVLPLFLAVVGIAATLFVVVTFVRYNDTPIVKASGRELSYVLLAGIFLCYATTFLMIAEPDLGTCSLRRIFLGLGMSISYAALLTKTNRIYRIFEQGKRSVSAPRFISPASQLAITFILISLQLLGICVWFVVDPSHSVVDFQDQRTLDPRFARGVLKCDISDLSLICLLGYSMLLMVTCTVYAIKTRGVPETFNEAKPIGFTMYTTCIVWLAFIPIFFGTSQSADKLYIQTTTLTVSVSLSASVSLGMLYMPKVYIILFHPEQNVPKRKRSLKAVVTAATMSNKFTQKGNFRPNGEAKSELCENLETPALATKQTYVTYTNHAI
- experiment.notes: Binding affinity for mGluR4 receptor expressed in CHO cells
- Assay type: cell-based
- reported.conditions: cho
readout: Ki

Ki reported for this compound NC1(C(=O)O)CC2ON=C(C(=O)O)C2C1 (racemic; form 2) : > 1000 µM

---

The following are reported pKi results, target or system Metabotropic glutamate receptor 1 (Rattus norvegicus).
# pKi: negative log10 of molar concentration; output just the value

Recorded result, NC1(C(=O)O)CC2ON=C(C(=O)O)C2C1 (racemic; form 2) , pKi: 4.57

The reported pKi of the molecule NC1(C(=O)O)CC2ON=C(C(=O)O)C2C1 (racemic; form 1) was 4.03

Please fill in: pKi reported for N[C@]1(C(=O)O)C[C@@H]2C(C(=O)O)=NO[C@@H]2C1 = 4.48

---

- subject.of.test: Metabotropic glutamate receptor 2 (Rattus norvegicus, UniProt P31421)
- Sequence (P31421 whole entry): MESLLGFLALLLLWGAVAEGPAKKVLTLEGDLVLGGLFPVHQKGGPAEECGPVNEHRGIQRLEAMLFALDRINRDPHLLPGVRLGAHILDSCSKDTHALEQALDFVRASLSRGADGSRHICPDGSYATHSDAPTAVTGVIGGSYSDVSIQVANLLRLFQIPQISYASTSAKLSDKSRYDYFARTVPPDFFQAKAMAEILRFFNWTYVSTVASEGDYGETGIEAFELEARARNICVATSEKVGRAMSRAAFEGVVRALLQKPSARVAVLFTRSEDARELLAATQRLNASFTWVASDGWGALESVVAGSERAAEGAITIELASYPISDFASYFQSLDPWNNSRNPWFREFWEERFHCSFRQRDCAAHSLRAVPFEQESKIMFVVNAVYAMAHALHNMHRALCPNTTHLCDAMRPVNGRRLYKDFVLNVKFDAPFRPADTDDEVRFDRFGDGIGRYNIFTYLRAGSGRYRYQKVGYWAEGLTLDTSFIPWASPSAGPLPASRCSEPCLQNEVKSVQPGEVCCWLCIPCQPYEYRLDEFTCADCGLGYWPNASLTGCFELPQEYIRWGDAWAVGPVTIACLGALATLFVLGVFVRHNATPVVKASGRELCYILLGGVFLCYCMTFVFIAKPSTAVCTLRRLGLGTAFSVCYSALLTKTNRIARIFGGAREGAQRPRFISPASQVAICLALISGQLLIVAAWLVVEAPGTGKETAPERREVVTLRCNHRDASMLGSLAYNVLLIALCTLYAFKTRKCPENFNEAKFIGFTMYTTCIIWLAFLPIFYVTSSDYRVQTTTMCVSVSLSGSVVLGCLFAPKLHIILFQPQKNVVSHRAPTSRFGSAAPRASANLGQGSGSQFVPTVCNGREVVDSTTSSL
Field: Ki. Provide a value for each of the compounds that follow.

So for N[C@@]1(C(=O)O)C[C@@H]2C(C(=O)O)=NO[C@@H]2C1 , the logged Ki turned out to be > 1 mM

Item: N[C@]1(C(=O)O)C[C@@H]2ON=C(C(=O)O)[C@@H]2C1 | Ki: > 1 mM

Consider NC(CC1CC(C(=O)O)=NO1)C(=O)O (racemic; form 1) . Its measured Ki is > 1 mM
